# measured target: T1, human CD40 extracellular domain with C-terminal His-AviTag (human, UniProt P25942 21-193)
# T1 construct: not shown: C-terminal His-AviTag
# T1 sequence (P25942 21-193): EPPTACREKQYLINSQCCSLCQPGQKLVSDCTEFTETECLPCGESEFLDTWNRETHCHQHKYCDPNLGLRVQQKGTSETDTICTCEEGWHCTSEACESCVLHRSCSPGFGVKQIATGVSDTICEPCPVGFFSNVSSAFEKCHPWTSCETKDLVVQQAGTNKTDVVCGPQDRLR
# procedure text: SPR, antibody captured, CD40 ECD analyte;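 also: biacore SPR at 25 °C in PBS-T pH 7.4, CD40 ECD analyte from 300 nM in 1:3 series, 300 s association, up to 1200 s dissociation, double-referenced, Langmuir 1:1 fit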
Reported koff is given for each of the following binders.
Write it as a number; the unit s⁻¹ goes unstated.

Q) Need koff of P1AE1001, humanized anti-CD40 antibody VH1a/VL1b, huIgG1_LALA_PG (antibody, V domains shown, huIgG1 with effector silent Fc (P329G, L234A, L235A)) VH: QVQLVQSGAEVKKPGASVKVSCKASGYSFTGYYIHWVRQAPGQSLEWMGRVIPNAGGTSYNQKFKGRVTLTVDKSISTAYMELSRLRSDDTAVYYCAREGIYWWGQGTTVTVSS VL: DIVVTQTPLSLSVTPGQPASISCRSSQSLVHSNGNTFLHWYLQKPGQSPQLLIYTVSNRFSGVPDRFSGSGSGTDFTLKISRVEAEDVGVYFCSQTTHVPWTFGGGTKVEIK , thanks.
A) 0.00681

Q) What koff value was documented for this binder, P1AE0998, humanized anti-CD40 antibody VH1c/VL1d, huIgG1_LALA_PG (antibody, V domains shown, huIgG1 with effector silent Fc (P329G, L234A, L235A)) VH: QVQLVQSGAEVKKPGASVKVSCKASGYSFTGYYIHWVRQAPGQSLEWMGRVIPNAGGTSYNQKFKGRVTLTVDKSISTAYMELSRLRSDDTAVYYCAREGIYWWGHGTTVTVSS VL: DVVVTQTPLSLSVTPGQPASISCRSSQSLVHSNGNTFLHWYLQKPGQSPQLLIYTVSNRFSGVPDRFSGSGSGTDFTLKISRVEAEDVGVYFCSQTTHVPWTFGGGTKLEIK ?
A) 0.00896

Could you now look at the following binder, please?
Q) Which koff value is on record for P1AE0819, humanized anti-CD40 antibody VH1d/VL1d, huIgG1_LALA_PG (antibody, V domains shown, huIgG1 with effector silent Fc (P329G, L234A, L235A)) VH: QVQLVQSGAEVKKPGASVKVSCKASGYSFTGYYIHWVRQAPGQSLEWMGRVIPNAGGTSYNQKFKGRVTLSVDKSISTAYMELSRLRSDDTAVYYCAREGIYWWGQGTTVTVSS VL: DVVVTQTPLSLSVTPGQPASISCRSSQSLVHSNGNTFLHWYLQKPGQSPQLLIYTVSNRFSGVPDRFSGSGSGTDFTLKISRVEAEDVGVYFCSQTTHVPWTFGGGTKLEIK ?
A) 0.00877
